Below: a set of entries, each annotated with reported self-cleavage kobs at 2500 uM GlcN6P.
B1: glmS ribozyme (parent)
chain: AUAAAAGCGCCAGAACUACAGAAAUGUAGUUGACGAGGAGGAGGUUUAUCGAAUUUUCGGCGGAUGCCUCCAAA

- Variants of: B1
- Method Description: self-cleavage kobs at 2500 uM GlcN6P; higher = faster cleavage; RNA array
- Condition Description: with glucosamine-6-phosphate
Fewer inactive variants are shown than the library holds.

>  <Polymer Sequence>
AUAAAAGCGCCAGAACUACAGAAAUGUAGUCGACGAGGAUGAGGUGUAUCGAAUUUUCGGCGGAUGCCUCCAAA

>  <Unit Label>
s⁻¹

>  <Modifier Sign>
=

>  <self-cleavage kobs at 2500 uM GlcN6P>
3.61e-05

$$$$
>  <Polymer Sequence>
AUAAAAGCGCCAGAACUACAGAAAUGUAGUUGACGAGGAGGAGCUUUAUCGAAUGUUCGGCGGAUGCCUCCAAA

>  <Unit Label>
s⁻¹

>  <Modifier Sign>
=

>  <self-cleavage kobs at 2500 uM GlcN6P>
5.66e-05

$$$$
>  <Polymer Sequence>
AUAAAAGCUCUAGAACUACAGAAAUGUAGUUGGCGAGGAUGAGGUUUAUCGAAUUUUCGGCGGAUGCCGCCAAA

>  <Unit Label>
s⁻¹

>  <Modifier Sign>
<

>  <self-cleavage kobs at 2500 uM GlcN6P>
1e-05

$$$$
>  <Polymer Sequence>
AUAAAAGCGCCAGAACUACAGAAAUGUAGUUUACGAUGGGGAGGUUUAUCGAAUUUUCGGCGGAUGCCUCCAAA

>  <Unit Label>
s⁻¹

>  <Modifier Sign>
<

>  <self-cleavage kobs at 2500 uM GlcN6P>
1e-05

$$$$
>  <Polymer Sequence>
AUAAAAGCGCCAGAACUACAGAAAUGUAGAUGACGAGAGGGAGGUUUAUCGAAUUUUAGGCGCAUGCCUCAAAA

>  <Unit Label>
s⁻¹

>  <Modifier Sign>
<

>  <self-cleavage kobs at 2500 uM GlcN6P>
1e-05

$$$$
>  <Polymer Sequence>
AUAAAAGCGCCAGAACUACAUAAAUGUAGUUGACGAGGAGGAGGUUUAUCGAAUUUUCGGCGGAUGGCUCCAAA

>  <Unit Label>
s⁻¹

>  <Modifier Sign>
=

>  <self-cleavage kobs at 2500 uM GlcN6P>
0.000139

$$$$
>  <Polymer Sequence>
AUAAAAGAGCCAGAACUACAGAAAUGUAGUUGACGAGGAGGAGGUUUAUCGAAUUUUCAGCGGAUGCCUCCAAA

>  <Unit Label>
s⁻¹

>  <Modifier Sign>
<

>  <self-cleavage kobs at 2500 uM GlcN6P>
1e-05

$$$$
>  <Polymer Sequence>
AUAAAAGCGCAAGAGAUACAGAAAUGUAUUUGACGAGGAGGAGGUUUAUCGAAUUUUCGGCGGAUGCCUCCAAA

>  <Unit Label>
s⁻¹

>  <Modifier Sign>
=

>  <self-cleavage kobs at 2500 uM GlcN6P>
0.000102

$$$$
>  <Polymer Sequence>
AUAAAAGCGCCAGAACUACAGAAAUGUACUUGAUGAGGAGGAGGUUUAUCGAAUUUUCGGCGGAUGCCUCCAAA

>  <Unit Label>
s⁻¹

>  <Modifier Sign>
<

>  <self-cleavage kobs at 2500 uM GlcN6P>
1e-05

$$$$
>  <Polymer Sequence>
AUAAAAGCGCCAGAACUACAGAAAUGUAGUUGACGAGGAGGAGGUUUAUUGAAUUUUCGGCGGAUGUCUCCAAA

>  <Unit Label>
s⁻¹

>  <Modifier Sign>
=

>  <self-cleavage kobs at 2500 uM GlcN6P>
3.69e-05

$$$$
>  <Polymer Sequence>
AUAAAAGCGCUAGAACUACAGAAAUGUAGUUCACGAGGAGGGGGUUUAUCGAAUUUUCUGCGGAUGCCUCCAAA

>  <Unit Label>
s⁻¹

>  <Modifier Sign>
<

>  <self-cleavage kobs at 2500 uM GlcN6P>
1e-05

$$$$
>  <Polymer Sequence>
AUAAAAGCGCGAGAACUACAGAAAUGUAGUUGACGAGGAGUAGGUUUAUUGAAUUUUCGGCGGAUGCCUCCAAA

>  <Unit Label>
s⁻¹

>  <Modifier Sign>
<

>  <self-cleavage kobs at 2500 uM GlcN6P>
1e-05

$$$$
>  <Polymer Sequence>
AUAAAAGCGCCGGAACUACAGAAAUGUAGUUGACGAGGAGGAGGUUUAUCGAAUUUUCGGCGGGUGCCUCCAAA

>  <Unit Label>
s⁻¹

>  <Modifier Sign>
=

>  <self-cleavage kobs at 2500 uM GlcN6P>
0.000367

$$$$
>  <Polymer Sequence>
AUAAACGCGCCAGAACUACAGAAAUGUAGUUGACGGGGAGGAGGUUUAUCGAAUUUUCGGGGGAUACCUCCAAA

>  <Unit Label>
s⁻¹

>  <Modifier Sign>
<

>  <self-cleavage kobs at 2500 uM GlcN6P>
1e-05

$$$$
>  <Polymer Sequence>
AUAAAAGCGGCAGAACUACAGAAAUGUAGUUGACGAGGAGGAGGUUUAUGGAAUUUUCGGCGGAUGUCUCCAAA

>  <Unit Label>
s⁻¹

>  <Modifier Sign>
=

>  <self-cleavage kobs at 2500 uM GlcN6P>
0.000267

$$$$
>  <Polymer Sequence>
AUAAAAGCGCCAAAACUACAGAAAUGUAGUUGAGAAGGAGAAGGUUUAUCGAAUUUUCGGCGGAAUCCUCCAAA

>  <Unit Label>
s⁻¹

>  <Modifier Sign>
<

>  <self-cleavage kobs at 2500 uM GlcN6P>
1e-05

$$$$
>  <Polymer Sequence>
AUAAAAGCGUCUGAACUACAGAAAUGUACUUGACGAGGAGUAGGUUUAUCGAAUUUUCGGCGGAUGCCUUCAAA

>  <Unit Label>
s⁻¹

>  <Modifier Sign>
<

>  <self-cleavage kobs at 2500 uM GlcN6P>
1e-05

$$$$
>  <Polymer Sequence>
AUAAAAGCGCCAGAACUACAGAAAUGUAGUUGACGAGGAGGAGGUCUAUCGAAUUUUCGGCGGAUACCUCCAAA

>  <Unit Label>
s⁻¹

>  <Modifier Sign>
=

>  <self-cleavage kobs at 2500 uM GlcN6P>
0.000662

$$$$
>  <Polymer Sequence>
AUAAAAGCGCCAGAACUACAGAAAUGUAGUUGACGAGGAGGAGGUUUAUCGAAUUCUCGGGGGAUGCCUCCAAA

>  <Unit Label>
s⁻¹

>  <Modifier Sign>
<

>  <self-cleavage kobs at 2500 uM GlcN6P>
1e-05

$$$$
>  <Polymer Sequence>
AUAAAAGCGCCAGAACUACAGAAAUGUAGUUGACGAGGAGGGGGUUUAUCGCGGUUUCGGCGGAUGCCUCCAAA

>  <Unit Label>
s⁻¹

>  <Modifier Sign>
<

>  <self-cleavage kobs at 2500 uM GlcN6P>
1e-05

$$$$
>  <Polymer Sequence>
AUAAAAGCGCCAGAACUACAGAAAUGUAGUUGACGAGGAGGAGGUUUAUCGAAUUAUCGGCGGAUACCUCCAAA

>  <Unit Label>
s⁻¹

>  <Modifier Sign>
=

>  <self-cleavage kobs at 2500 uM GlcN6P>
0.00253

$$$$
>  <Polymer Sequence>
AUAAAAGCGCCAGAACUACAGAAAUGUAGUUGACGAGGAGGAGGGAUAUCGAAUUUUCGGCGGAUUCCUCCAAA

>  <Unit Label>
s⁻¹

>  <Modifier Sign>
=

>  <self-cleavage kobs at 2500 uM GlcN6P>
0.000166

$$$$
